Reference for the values: patent US20240309087A1

In this section, each of the binders is paired with its reported Relative activity (%).
systemName: T1, hCD112R mFC recombinant protein (human; murine, UniProt Q6DKI7 41-160)
T1 construct: range 41-160; expressed in 293E cells; also called hCD112R ECD mFC; hCD112R-ECD-mFC; not shown: murine IgG2a Fc domain (MX2-mFc vector)
T1 sequence (looked up): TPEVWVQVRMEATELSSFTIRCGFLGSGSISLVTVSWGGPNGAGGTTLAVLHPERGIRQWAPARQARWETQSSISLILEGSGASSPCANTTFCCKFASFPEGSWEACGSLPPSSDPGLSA
measurementNotes: ELISA, coated hCD112R-ECD-mFC; EC50 COM701/EC50 antibody
Unit % implied. Number only.

Hu58 (antibody, IgG4, V domains shown, humanized IgG4) VH: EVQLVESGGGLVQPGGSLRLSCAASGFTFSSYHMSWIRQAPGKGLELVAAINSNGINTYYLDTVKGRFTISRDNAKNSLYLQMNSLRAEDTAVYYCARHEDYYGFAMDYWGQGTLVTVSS VL: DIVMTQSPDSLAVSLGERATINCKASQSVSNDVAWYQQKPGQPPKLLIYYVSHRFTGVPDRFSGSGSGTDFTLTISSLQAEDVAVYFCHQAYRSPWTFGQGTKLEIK = 172

// below: Relative activity (%) requested for another binder
input: Tell me measured Relative activity (%) for Hu57 (antibody, IgG4, V domains shown, humanized IgG4) VH: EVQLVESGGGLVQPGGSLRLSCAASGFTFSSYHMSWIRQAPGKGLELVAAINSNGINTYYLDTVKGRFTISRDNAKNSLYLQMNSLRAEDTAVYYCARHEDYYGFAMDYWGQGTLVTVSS VL: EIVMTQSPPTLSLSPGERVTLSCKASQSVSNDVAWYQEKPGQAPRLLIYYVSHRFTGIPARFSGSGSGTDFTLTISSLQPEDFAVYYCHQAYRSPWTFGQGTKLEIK please.
output: 171
